tgt: IL-17A/F (Homo sapiens, UniProt Q16552+Q96PD4)
Sequence (Q16552 24-155): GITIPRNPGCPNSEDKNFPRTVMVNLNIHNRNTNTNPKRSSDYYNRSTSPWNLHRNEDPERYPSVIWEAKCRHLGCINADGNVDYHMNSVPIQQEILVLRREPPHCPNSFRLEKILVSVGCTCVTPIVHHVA
Sequence (Q96PD4 31-163): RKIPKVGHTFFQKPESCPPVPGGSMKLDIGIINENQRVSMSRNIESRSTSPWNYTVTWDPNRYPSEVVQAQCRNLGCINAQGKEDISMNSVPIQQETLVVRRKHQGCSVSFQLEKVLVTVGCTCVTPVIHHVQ
test: IL-17A/F HEK-Blue cell assay (SEAP reporter)
conditionSet: HEK-Blue IL-17A reporter cells, IL17A/F 5 ng/mL, 20 hours, SEAP read at A630; read-out: HEK-Blue IL17AF (IC50 for IL-17A/F inhibition)
assayMetric: IC50

CCn1nccc1C(=O)N[C@H](c1cn2nc(C[C@H]3C[C@@H](C(F)(F)F)CNC3=O)c(N(C)C3COC3)nc2n1)C1CCC(F)(F)CC1    > 1 µM

Request: Indicate the recorded IC50 value for this compound: CC(C)n1nccc1C(=O)N[C@H](c1cn2nc(C[C@H]3C[C@H](C(F)(F)F)CNC3=O)cnc2n1)C1CCC(F)(F)CC1
Result: > 1 µM

Request: Indicate the recorded IC50 value for this compound: CCn1nccc1C(=O)N[C@H](c1cn2nc(C[C@H]3C[C@@H](C(F)(F)F)CNC3=O)c(CC3CCCOC3)nc2n1)C1CCC(F)(F)CC1 (some centres unmarked)
Result: 0.1 to 1 µM

Request: Indicate the recorded IC50 value for this compound: CCn1nccc1C(=O)N[C@H](c1cn2nc(CC3C[C@@H](C(F)(F)F)CNC3=O)c(N3CCOCC3)nc2n1)[C@H]1CC[C@H](C)CC1 (single isomer, unassigned) [Compound 22]
Result: 0.1 to 1 µM

Request: Indicate the recorded IC50 value for this compound: CCn1nccc1C(=O)N[C@H](c1cn2nc(C[C@H]3C[C@@H](C(F)(F)F)CNC3=O)c(C3CCOC3)nc2n1)[C@H]1CC[C@H](C)CC1 (single isomer, unassigned) [Compound 139]
Result: < 0.1 µM
